- Tested on: Human breast adenocarcinoma cell MCF7
- experimentSummary: cells
- measurementConditions: MCF7, read-out: IC50 (50% inhibition concentration)
valueKind: log10 of IC50 (log10 of the value in µg/mL)
Note the log scale: values are log10 of IC50 expressed in µg/mL.

Response field log10 of IC50 (Human breast adenocarcinoma cell MCF7) for item CC(C)=CCC[C@@]1(C)C=Cc2c(O)c3c(c(C(O)C4OC4(C)C)c2O1)O[C@]12C(=C[C@@H]4CC1C(C)(C)OC2(C/C=C(/C)C(=O)O)C4=O)C3=O (stereo partly shown) [Gh-3311, epiformoxanthone G] : 0.90

Response field log10 of IC50 (Human breast adenocarcinoma cell MCF7) for item CC(C)=CCc1c2c(c(O)c3c1O[C@]14C(=C[C@@H]5CC1C(C)(C)OC4(C/C=C(\C)C(=O)O)C5=O)C3=O)C=CC(C)(C/C=C\C(C)(C)O)O2 (stereo partly shown) : -0.06

Response field log10 of IC50 (Human breast adenocarcinoma cell MCF7) for item CC(C)=CCc1c2c(c(O)c3c1O[C@]14C(=C[C@@H]5CC1C(C)(C)OC4(C/C=C(/C)C(=O)O)C5=O)C3=O)C=C[C@@](C)(C/C=C/C(C)(C)O)O2 : -0.14

Response field log10 of IC50 (Human breast adenocarcinoma cell MCF7) for item CC(C)=CCC[C@]1(C)C=Cc2c(O)c3c(c(C(O)C4OC4(C)C)c2O1)O[C@]12C(=C[C@@H]4CC1C(C)(C)OC2(C/C=C(/C)C(=O)O)C4=O)C3=O (stereo partly shown) : 0.38

Response field log10 of IC50 (Human breast adenocarcinoma cell MCF7) for item CC(C)=CCc1c2c(c(O)c3c1O[C@]1(C)CCC4[C@H]3C1C4(C)C)C(=O)C1=CC3CC4C(C)(C)O[C@](C/C=C(/C)C(=O)O)(C3=O)[C@@]14O2 : -1.00

Response field log10 of IC50 (Human breast adenocarcinoma cell MCF7) for item C=C(C)C1CC[C@]2(C)C[C@H]1c1c(O)c3c(c(CC=C(C)C)c1O2)O[C@]12C(=CC4CC1C(C)(C)O[C@]2(C/C=C(/C)C(=O)O)C4=O)C3=O (stereo partly shown) : 0.34

Response field log10 of IC50 (Human breast adenocarcinoma cell MCF7) for item CC(C)=CCC/C(C)=C/Cc1c(O)c(CC=C(C)C)c2c(c1O)C(=O)C1=C[C@@H]3CC4C(C)(C)O[C@](C/C=C(\C)C(=O)O)(C3=O)[C@@]14O2 : 0.48

Response field log10 of IC50 (Human breast adenocarcinoma cell MCF7) for item CC(C)=CCC[C@]1(C)C=Cc2c(O)c3c(c(CC4OC4(C)C)c2O1)O[C@]12C(=C[C@@H]4CC1C(C)(C)OC2(C/C=C(/C)C(=O)O)C4=O)C3=O (stereo partly shown) : -1.12

Response field log10 of IC50 (Human breast adenocarcinoma cell MCF7) for item CC(C)=CCC[C@@]1(C)C=Cc2c(O)c3c(c(CC4OC4(C)C)c2O1)O[C@]12C(=C[C@@H]4CC1C(C)(C)OC2(C/C=C(/C)C(=O)O)C4=O)C3=O (stereo partly shown) [Gh-3351, epiformoxanthone E] : 0.00

Response field log10 of IC50 (Human breast adenocarcinoma cell MCF7) for item C=C(C)C1CC[C@@]2(C)Oc3c(CC=C(C)C)c4c(c(O)c3[C@@H]1C2O)C(=O)C1=C[C@@H]2CC3C(C)(C)OC(C/C=C(/C)C(=O)O)(C2=O)[C@@]13O4 (stereo partly drawn) [Gh-1050, 3α-hydroxygambogellic acid] : -0.85

Response field log10 of IC50 (Human breast adenocarcinoma cell MCF7) for item C=C(C)[C@@H]1CC[C@@]2(C)CC1c1c(O)c3c(c(CC=C(C)C)c1O2)O[C@]12C(=C[C@@H]4CC1C(C)(C)O[C@]2(C/C=C(/C)C(=O)O)C4=O)C3=O [Gh-2603-1, epigambogellic acid] : 0.34

Response field log10 of IC50 (Human breast adenocarcinoma cell MCF7) for item C=C(C)C(O)CC[C@]1(C)C=Cc2c(O)c3c(c(CC=C(C)C)c2O1)O[C@]12C(=C[C@@H]4CC1C(C)(C)OC2(C/C=C(/C)C(=O)O)C4=O)C3=O (stereo partly shown) : -0.35

Response field log10 of IC50 (Human breast adenocarcinoma cell MCF7) for item CC(C)=CCC[C@]1(C)C[C@H](O)c2c(O)c3c(c(CC=C(C)C)c2O1)O[C@]12C(=C[C@@H]4CC1C(C)(C)O[C@]2(C/C=C(/C)C(=O)O)C4=O)C3=O (stereo in doubt) : -0.70
